EXPERIMENTAL ENDPOINT: melting point

Below, 5 molecules whose answers are already recorded.
CC(=O)NC(C)CCC1CCN(c2nc3ccc(OCC4CC4)cc3o2)CC1 (racemic) : 131 to 132 °C
CC(=O)N[C@@H](C)COC1CCN(c2nc3cc(OCC4CCC4)ccc3o2)CC1 : 109 to 110 °C
CC(=O)N[C@@H](C)COC1CCN(c2nc3ccc(OCCC4CC4)cc3o2)CC1 : 99.3 to 99.6 °C
CC(=O)NC(C)CO[C@H]1CC[C@H](c2cc3ccc(OCC4CC4)cc3o2)CC1 (some centres unmarked) : 104 to 105 °C
CC(=O)N[C@@H](C)COC1CCN(c2nc3cc(OCC4CC4)ccc3o2)CC1 : 99 to 100 °C

Lookup: Query melting point for `CC(=O)N[C@@H](C)CCC1CCN(c2nc3ccc(OCC4CC4)cc3o2)CC1`
Found: 138.2 to 138.4 °C

Lookup: Query melting point for `CC(=O)N[C@@H](C)COC1CCN(c2nc3ccc(OCC(C)C)cc3o2)CC1`
Found: 103 to 105 °C

Lookup: Query melting point for CC(=O)NC(C)CC[C@H]1CC[C@H](n2cc3ccc(OCC4CC4)cc3n2)CC1 (some centres unmarked)
Found: 139 to 140 °C

###

Reported inhibition at 10 µM by item:
EXPERIMENTAL TARGET: human ACC2 (Homo sapiens)
Construct: His6 (from vector pFAST-BacHTa); made in house; host or cells: SF-9 insect cells, recombinant baculovirus BAC-ACC2 (Nd)
Sequence (O00763 117-2458 limits assumed): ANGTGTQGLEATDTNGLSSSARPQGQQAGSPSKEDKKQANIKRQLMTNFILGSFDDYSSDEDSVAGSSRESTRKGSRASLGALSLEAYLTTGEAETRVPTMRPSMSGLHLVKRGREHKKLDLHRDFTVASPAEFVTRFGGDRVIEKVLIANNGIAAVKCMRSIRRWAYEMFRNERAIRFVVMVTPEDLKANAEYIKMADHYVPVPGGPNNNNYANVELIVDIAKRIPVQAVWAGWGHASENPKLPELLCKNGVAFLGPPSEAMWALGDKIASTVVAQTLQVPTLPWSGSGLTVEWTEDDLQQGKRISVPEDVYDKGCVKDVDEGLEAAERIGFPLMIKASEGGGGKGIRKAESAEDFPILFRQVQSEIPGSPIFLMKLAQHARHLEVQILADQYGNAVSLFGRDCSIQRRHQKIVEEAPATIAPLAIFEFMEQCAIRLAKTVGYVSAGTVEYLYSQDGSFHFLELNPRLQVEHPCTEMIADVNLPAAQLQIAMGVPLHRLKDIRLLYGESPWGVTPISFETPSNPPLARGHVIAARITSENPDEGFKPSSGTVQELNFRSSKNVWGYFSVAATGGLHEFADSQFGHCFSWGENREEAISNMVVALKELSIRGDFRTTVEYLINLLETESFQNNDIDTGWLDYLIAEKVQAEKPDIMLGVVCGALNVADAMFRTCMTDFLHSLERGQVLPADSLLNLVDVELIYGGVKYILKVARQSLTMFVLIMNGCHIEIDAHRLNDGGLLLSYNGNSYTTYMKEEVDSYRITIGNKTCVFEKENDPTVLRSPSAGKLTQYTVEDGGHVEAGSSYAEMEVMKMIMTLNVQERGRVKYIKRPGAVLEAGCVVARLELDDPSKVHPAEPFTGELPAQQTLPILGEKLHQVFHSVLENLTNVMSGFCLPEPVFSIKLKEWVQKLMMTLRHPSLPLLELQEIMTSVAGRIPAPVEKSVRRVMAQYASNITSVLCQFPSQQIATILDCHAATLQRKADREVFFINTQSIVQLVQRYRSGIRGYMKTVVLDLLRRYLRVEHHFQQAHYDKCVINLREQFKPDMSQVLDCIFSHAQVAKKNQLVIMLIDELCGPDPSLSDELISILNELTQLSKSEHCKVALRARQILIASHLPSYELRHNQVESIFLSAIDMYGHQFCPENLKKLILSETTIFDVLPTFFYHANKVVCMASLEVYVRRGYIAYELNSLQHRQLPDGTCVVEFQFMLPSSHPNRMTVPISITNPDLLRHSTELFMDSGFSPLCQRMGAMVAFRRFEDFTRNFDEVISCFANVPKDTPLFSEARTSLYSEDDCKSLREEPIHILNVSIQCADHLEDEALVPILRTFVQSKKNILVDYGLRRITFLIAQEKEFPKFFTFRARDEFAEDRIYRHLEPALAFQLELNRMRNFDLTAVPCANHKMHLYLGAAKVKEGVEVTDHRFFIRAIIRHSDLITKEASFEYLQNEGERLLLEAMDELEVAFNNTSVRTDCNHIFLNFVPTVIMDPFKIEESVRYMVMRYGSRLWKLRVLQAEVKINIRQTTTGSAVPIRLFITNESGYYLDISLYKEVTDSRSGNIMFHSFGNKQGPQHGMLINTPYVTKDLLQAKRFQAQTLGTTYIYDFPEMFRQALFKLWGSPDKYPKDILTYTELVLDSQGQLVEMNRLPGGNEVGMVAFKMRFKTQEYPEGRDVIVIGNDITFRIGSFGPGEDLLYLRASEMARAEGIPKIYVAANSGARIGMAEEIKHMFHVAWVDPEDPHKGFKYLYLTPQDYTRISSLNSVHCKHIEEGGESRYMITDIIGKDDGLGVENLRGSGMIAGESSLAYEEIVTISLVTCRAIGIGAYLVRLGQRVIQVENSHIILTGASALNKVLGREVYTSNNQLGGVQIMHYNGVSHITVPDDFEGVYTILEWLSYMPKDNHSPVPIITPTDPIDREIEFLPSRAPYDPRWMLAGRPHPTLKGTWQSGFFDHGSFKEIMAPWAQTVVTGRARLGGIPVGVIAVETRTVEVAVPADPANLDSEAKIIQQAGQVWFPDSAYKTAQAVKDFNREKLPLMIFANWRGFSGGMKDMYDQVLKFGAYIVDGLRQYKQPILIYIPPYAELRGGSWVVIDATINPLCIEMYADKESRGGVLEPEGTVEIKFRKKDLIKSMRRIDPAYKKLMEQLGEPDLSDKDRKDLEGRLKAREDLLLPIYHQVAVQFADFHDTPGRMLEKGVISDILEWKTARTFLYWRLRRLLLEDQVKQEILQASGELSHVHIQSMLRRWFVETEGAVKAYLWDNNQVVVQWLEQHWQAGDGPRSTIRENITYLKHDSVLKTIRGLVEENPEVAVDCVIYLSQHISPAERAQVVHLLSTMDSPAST
ASSAY SUMMARY: Measurement of ACC2 inhibitory activity (malachite green, recombinant ACC2 (Nd))
Format: biochemical
RUN PARAMETERS: read-out: ACC2 inhibitory rate (%)
Kindly provide the numeric value in % only, without the unit symbol.

CC(COC1CCN(c2nc3ccc(OCC4CC4)cc3o2)CC1)Nc1ccon1 (centres unmarked) : 100
CC(=O)N[C@@H](C)COC1CCN(c2nc3ccc(OCC(C)C)cc3o2)CC1 : 99

Lookup: Query inhibition at 10 µM for CC(=O)NC(C)CCC1CCN(c2nc3ccc(OCC4CC4)cc3o2)CC1 (racemic)
Found: 104

Lookup: Query inhibition at 10 µM for `CC(=O)N[C@@H](C)COC1CCN(c2nc3ccc(OCCC4CC4)cc3o2)CC1`
Found: 102

Lookup: Query inhibition at 10 µM for `CC(=O)N[C@@H](C)COC1CCN(c2nc3cc(OCC4CC4)ccc3s2)CC1`
Found: 104

###

Reported melting point by item:

CC(=O)N[C@@H](C)COC1CCN(c2nc3ccc(OCC4CC4)cc3o2)CC1 [Example 1] : 122 to 123 °C

Lookup: Query melting point for CC(=O)N[C@@H](C)CO[C@H]1CC[C@H](n2cc3ccc(OCCC4CC4)cc3n2)CC1 [Example 40]
Found: 98 to 99 °C

Lookup: Query melting point for CC(=O)NC(C)CO[C@H]1CC[C@H](c2nc3ccc(OCC4CC4)cc3o2)CC1 (stereo partly drawn) [Example 39]
Found: 131 to 132 °C

###

EXPERIMENTAL TARGET: human ACC2 (Homo sapiens)
Construct: His6 (from vector pFAST-BacHTa); made in house; host or cells: SF-9 insect cells, recombinant baculovirus BAC-ACC2 (Nd)
ASSAY SUMMARY: Measurement of ACC2 inhibitory activity (malachite green, recombinant ACC2 (Nd))
Type: biochemical
RUN PARAMETERS: read-out: ACC2 inhibitory rate (%)
Reported inhibition at 10 µM by item:
Kindly provide the numeric value in % only, without the unit symbol.

Lookup: Query inhibition at 10 µM for `CC(=O)N[C@@H](C)CCC1CCN(c2nc3ccc(OCC4CC4)cc3o2)CC1`
Found: 106

Lookup: Query inhibition at 10 µM for `CC(=O)N[C@@H](C)COC1CCN(c2nc3cc(OCC4CC4)ccc3o2)CC1`
Found: 100

Lookup: Query inhibition at 10 µM for `CC(=O)N[C@@H](C)COC1CCN(c2nc3ccc(OCC4CCC4)cc3o2)CC1`
Found: 102

Lookup: Query inhibition at 10 µM for `CC(=O)N[C@@H](C)COC1CCN(c2nc3ccc(OCC4CC4)cc3o2)CC1`
Found: 97

Lookup: Query inhibition at 10 µM for Cc1conc1NC(C)COC1CCN(c2nc3ccc(OCC4CC4)cc3o2)CC1 (stereo not drawn)
Found: 100

Lookup: Query inhibition at 10 µM for `CC(=O)N[C@@H](C)COC1CCN(c2nc3cc(OCC4CCC4)ccc3o2)CC1`
Found: 98
